// provenance: patent EP0702683B1

protocol: Stability of inactivators at 37°C (spectrophotometric half life)
Type: physicochemical
measurementParameters: 0.1mM in buffer I (1mM EDTA, 50mM Tris pH 8.3), read-out: T1/2(h) in Buffer I (converted)
measureName: log10(half-life at 100 µM) (log10 of the value in h)
Please be aware that the numbers have been log10-transformed from half-life at 100 µM in h.

These recorded examples may help you get a feel for the data.
>  <compound>
Nc1nc(OCc2ccco2)c2nc[nH]c2n1

>  <log10(half-life at 100 µM)>
-0.52

$$$$
>  <compound>
Nc1nc(OCc2cccs2)c2nc[nH]c2n1

>  <log10(half-life at 100 µM)>
0.08

$$$$

Batch lookup, log10(half-life at 100 µM) per entry.
1. Nc1nc(OCc2cc3ccccc3s2)c2nc[nH]c2n1 [B.4226, O^6-(2-benzo[b]thienylmethyl)guanine]
2. Nc1nc(OCc2ccc3c(c2)OCO3)c2nc[nH]c2n1
3. Nc1nc(OCc2cccc3ccccc23)c2nc[nH]c2n1

### Response
[0.99, 0.11, 1.78]
